# experimental.system: Kappa-type opioid receptor (Homo sapiens) (UniProt P41145)
# Sequence (P41145 whole entry): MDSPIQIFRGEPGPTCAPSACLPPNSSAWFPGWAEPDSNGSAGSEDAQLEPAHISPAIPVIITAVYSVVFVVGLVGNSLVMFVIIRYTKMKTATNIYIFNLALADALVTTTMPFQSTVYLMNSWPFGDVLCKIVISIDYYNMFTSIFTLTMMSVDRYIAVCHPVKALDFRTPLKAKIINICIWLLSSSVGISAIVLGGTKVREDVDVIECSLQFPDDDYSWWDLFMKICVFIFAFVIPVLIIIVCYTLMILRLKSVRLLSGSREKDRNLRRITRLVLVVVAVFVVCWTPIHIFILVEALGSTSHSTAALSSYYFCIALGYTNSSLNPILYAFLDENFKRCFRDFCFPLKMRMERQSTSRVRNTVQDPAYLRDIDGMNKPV
# experimental.conditions: Compound concentration 10 µM; call rule not given here
A correct response names exactly one class from True (active), False (inactive)

In this assay, the call recorded for "COc1ccc(S(=O)(=O)c2cc(OC)ccc2S(=O)(=O)c2ccc([C@H](C)NS(C)(=O)=O)cc2)cc1" was what?
False

Kindly provide the recorded test outcome for the following compound: "CCCCN1CCC(COC(=O)c2cc(Cl)c(N)c3c2OCCO3)CC1"
False

So what was the verdict on "O=C(O)C1CN(Cc2ccc(OCc3ccc(Cl)c(Cl)c3)cc2)C1" in this test?
False

* * *

# experimental.system: D(2) dopamine receptor (Homo sapiens)
# experimental.conditions: Compound concentration 10 µM
# Description: PDSP Primary Binding target: DRD2 - Compounds are tested at 10 uM concentration, plate are incubated at room temperature in the dark for 90 minutes. Reaction are stopped by vacuum filtration onto 0.3% polyethyleneimine soaked filter mats using Filtermate harvester. Scintilation cocktail is then melted onto microwave-dried filters on a hot plate and the radio activity is counted in Microbia counter.
I'd be grateful if you could share measured inhibition for these entries.

These recorded examples may help you get a feel for the data.
compound.smiles | assay.endpoint | experimental.result
c1cc(CN2CCCNCCNCCCNCC2)ccc1CN1CCCNCCNCCCNCC1 | inhibition | -1.67%
Cc1ccc(O)c([C@H](CCN(C(C)C)C(C)C)c2ccccc2)c1 | inhibition | 42.6%

// each compound listed below needs its inhibition
1. CN(C)C(=O)N[C@H]1CC[C@H](CCN2CCN(c3cccc(Cl)c3Cl)CC2)CC1
2. N#Cc1c(O)nc(SCc2cccc(F)c2F)nc1C1CC1

100%
-6.52%

* * *

# experimental.system: Histamine H4 receptor (Homo sapiens)
# experimental.conditions: Compound concentration 10 µM
Hi there, I'd appreciate the recorded inhibition for every entry that follows.
Numbers only, in %.

For orientation, consider the following solved cases.
compound | experimental.system | inhibition, %
COc1cc2c(CCNC(C)=O)c[nH]c2cc1Cl | Histamine H4 receptor (Homo sapiens) | 2.03
Cc1ccc(O)c([C@H](CCN(C(C)C)C(C)C)c2ccccc2)c1 | Histamine H4 receptor (Homo sapiens) | -9.16
CCCCCNC(=O)NS(=O)(=O)c1cc([N+](=O)[O-])ccc1NC1CCCCC1 | Histamine H4 receptor (Homo sapiens) | 16.9

Batch: inhibition for all items listed.
1. Clc1cccc(Cl)c1NC1=NCCN1
2. CO[C@@H]1COCC[C@@H]1N[C@@H]1CC[C@@](C(=O)N2CCc3ncc(C(F)(F)F)cc3C2)(C(C)C)C1
3. N#Cc1ccc2[nH]cc(CCCCN3CCN(c4ccc5oc(C(N)=O)cc5c4)CC3)c2c1
4. O=C(c1cc2c(cc1F)OC(c1ccc(F)cc1)(c1ccc(Cl)cc1Cl)O2)N1CCOCC1 (stereo not drawn)

1: 2.9; 2: 2.39; 3: 24.6; 4: 32.4

// lookup inhibition for CCOC(=O)c1c(C)[nH]c2ccc3c(c12)CN1CCc2cc(OC)ccc2C1O3 (stereo not drawn)
29.1

* * *

Can you tell me inhibition for the items I'm about to list?
# experimental.system: UniProt:P21918
# Sequence (P21918 whole entry): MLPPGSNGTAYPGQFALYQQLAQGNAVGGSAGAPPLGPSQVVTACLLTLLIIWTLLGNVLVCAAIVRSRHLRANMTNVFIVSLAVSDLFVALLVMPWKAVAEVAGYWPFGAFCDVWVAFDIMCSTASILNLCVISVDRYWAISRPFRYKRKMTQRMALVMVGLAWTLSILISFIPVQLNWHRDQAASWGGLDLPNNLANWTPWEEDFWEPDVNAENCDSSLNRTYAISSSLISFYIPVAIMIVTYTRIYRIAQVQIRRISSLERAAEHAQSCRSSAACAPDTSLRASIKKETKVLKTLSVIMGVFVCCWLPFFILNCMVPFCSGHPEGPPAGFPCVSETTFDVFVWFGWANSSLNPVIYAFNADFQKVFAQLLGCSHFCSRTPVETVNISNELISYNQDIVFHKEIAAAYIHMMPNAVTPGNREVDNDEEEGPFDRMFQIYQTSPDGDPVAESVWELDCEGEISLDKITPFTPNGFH
# experimental.conditions: Compound concentration 10 µM
# Description: PDSP Primary Binding target: DRD5 - Compounds are tested at 10 uM concentration, plate are incubated at room temperature in the dark for 90 minutes. Reaction are stopped by vacuum filtration onto 0.3% polyethyleneimine soaked filter mats using Filtermate harvester. Scintilation cocktail is then melted onto microwave-dried filters on a hot plate and the radio activity is counted in Microbia counter.
Answers are plain numbers, in %.

Past entries and their recorded results:
molecule | inhibition / %
CN(C)C(=O)C(CCN1CCC(O)(c2ccc(Cl)cc2)CC1)(c1ccccc1)c1ccccc1 | 1.53
Cc1cccc(NC(=O)N[C@@H]2N=C(c3ccccc3)c3ccccc3N(C)C2=O)c1 | 0.34
O=C(c1cc2c(cc1F)OC(c1ccc(F)cc1)(c1ccc(Cl)cc1Cl)O2)N1CCOCC1 (stereo not drawn) | 75.9
COc1ccc(NC(=O)c2ccc(-c3ccc(-c4noc(C)n4)cc3C)cc2)cc1OCCN(C)C | 48.4
CCc1nn(CCCN2CCN(c3cccc(Cl)c3)CC2)c(=O)n1CCOc1ccccc1 | 6.13
N#Cc1ccc(NC(=O)Nc2ccccc2Br)c2nn[nH]c12 | -7.18
CN1CCC(C(=O)c2cccc(NC(=O)c3c(F)cc(F)cc3F)n2)CC1 | 73.7
O=C1N/C(=N/c2ccccc2F)S/C1=C\c1ccc(C(=O)O)cc1 | 6.76
c1nc(CC2CCNCC2)c[nH]1 | 5.35
CN1CCC(=C2c3ccccc3CC(=O)c3sccc32)CC1 | 55.2

Give measured inhibition for every item shown.
1. C[C@@H](N)Cc1c[nH]cn1
2. COc1ccc(OC(F)(F)F)cc1CN[C@H]1CCCN[C@H]1c1ccccc1
3. Cc1c(F)cccc1NC(=O)Nc1ccc(Cl)c(S(=O)(=O)[C@H]2CCCNC2)c1O
4. CCc1ccc(OCc2ccccc2C(=O)Nc2ccc3nc(C)cc(N)c3c2)cc1

[24.8, -8.91, 3.67, 39.1]

Could you tell me inhibition for each of these molecules? They are listed below.
1. CN1C(=O)[C@@H](NC(=O)c2cc3ccccc3[nH]2)N=C(c2ccccc2)c2ccccc21
2. CC(C)C[C@H](NC(=O)N1CCCCCC1)C(=O)N[C@H](Cc1cn(C)c2ccccc12)C(=O)N[C@H](Cc1ccccn1)C(=O)O
3. Cc1c(P(=S)(c2ccccc2)c2ccccc2)n2ccccc2[n+]1C/C=C/c1ccccc1
4. CCCn1c(=O)c2nc(C34CC5CC(CC3C5)C4)[nH]c2n(CCC)c1=O

[-2.85, -0.58, 24.6, 23.9]

* * *

# experimental.system: 5-hydroxytryptamine receptor 1D (Homo sapiens) (UniProt P28221)
# Sequence (P28221 whole entry): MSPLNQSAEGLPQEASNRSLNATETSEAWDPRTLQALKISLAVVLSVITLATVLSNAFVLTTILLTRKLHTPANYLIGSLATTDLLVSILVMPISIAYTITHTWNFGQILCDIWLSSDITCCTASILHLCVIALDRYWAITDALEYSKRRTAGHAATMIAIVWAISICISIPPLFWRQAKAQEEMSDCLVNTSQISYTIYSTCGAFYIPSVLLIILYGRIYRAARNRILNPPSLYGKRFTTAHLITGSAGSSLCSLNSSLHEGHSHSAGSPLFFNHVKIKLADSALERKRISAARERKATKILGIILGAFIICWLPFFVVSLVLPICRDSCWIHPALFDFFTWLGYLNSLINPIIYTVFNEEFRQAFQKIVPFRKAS
# experimental.conditions: Compound concentration 10 µM
# Description: PDSP Primary Binding target: HTR1D - Compounds are tested at 10 uM concentration, plate are incubated at room temperature in the dark for 90 minutes. Reaction are stopped by vacuum filtration onto 0.3% polyethyleneimine soaked filter mats using Filtermate harvester. Scintilation cocktail is then melted onto microwave-dried filters on a hot plate and the radio activity is counted in Microbia counter.
assay.endpoint: inhibition (%)
Answers are plain numbers, in %.

Below are worked cases with known answers.
compound.smiles | unit.descriptor | inhibition
CN(C)C(=O)C(CCN1CCC(O)(c2ccc(Cl)cc2)CC1)(c1ccccc1)c1ccccc1 | % | 55.2
C[C@@H](N)Cc1c[nH]cn1 | % | 6.42
Cc1ccc(O)c([C@H](CCN(C(C)C)C(C)C)c2ccccc2)c1 | % | 41.2
CN1CC(=O)N=C1NC(=O)Nc1cccc(Cl)c1 | % | 4.68
Brc1c(NC2=NCCN2)ccc2nccnc12 | % | 49.5

Each compound below has a recorded value; state its inhibition.
1. Cc1cc(NC(=O)NCCN2CCC(O)(Cc3ccccc3)CC2)c2ccccc2n1
2. C[C@@H](NCCCc1cccc(C(F)(F)F)c1)c1cccc2ccccc12

1. 91.7
2. 61.5

For each of the compounds below, state inhibition.
1. N#Cc1ccc2[nH]cc(CCCCN3CCN(c4ccc5oc(C(N)=O)cc5c4)CC3)c2c1
2. Cc1cccc(NC(=O)N[C@@H]2N=C(c3ccccc3)c3ccccc3N(C)C2=O)c1

[80, 24.6]

Bench note: what inhibition did "Clc1ccc(CCCOCCCN2CCCCC2)cc1" show?
16.4

* * *

# experimental.system: UniProt P21918
# experimental.conditions: Compound concentration 10 µM
Assign inhibition to each entry below.
One number for each entry, in %.

Completed entries (count: 5):
compound.smiles | experimental.system | inhibition [%]
COC1CCN(c2cccc(-c3cc(NC(C)=O)nc(-n4nc(C)cc4C)n3)n2)CC1 | UniProt P21918 | 3.58
OC1(c2ccc(Cl)cc2)CCN(Cc2c[nH]c3ccccc23)CC1 | UniProt P21918 | 40.1
Cc1nnn(-c2ccc(-c3ccc(C4(C(=O)O)CC4)cc3)cc2)c1NC(=O)O[C@H](C)c1ccccc1 | UniProt P21918 | 43.6
CN(C)C(=O)N[C@H]1CC[C@H](CCN2CCN(c3cccc(Cl)c3Cl)CC2)CC1 | UniProt P21918 | -0.02
O=C(O)CC1CCC2(CC1)CCN(c1cc(OC(F)(F)F)ccc1Cl)CC2 | UniProt P21918 | -2.48

Now examine the next entry.
Request: inhibition, test system UniProt P21918, entry "Cc1cc([C@@H](C)Nc2cccc(-c3cc(C)c(C(=O)N[C@@H](C)C(=O)O)c(C)c3)c2)ccc1Cl"
5.13

* * *

# experimental.system: 5-hydroxytryptamine receptor 5A (Homo sapiens) (UniProt P47898)
# Sequence (P47898 whole entry): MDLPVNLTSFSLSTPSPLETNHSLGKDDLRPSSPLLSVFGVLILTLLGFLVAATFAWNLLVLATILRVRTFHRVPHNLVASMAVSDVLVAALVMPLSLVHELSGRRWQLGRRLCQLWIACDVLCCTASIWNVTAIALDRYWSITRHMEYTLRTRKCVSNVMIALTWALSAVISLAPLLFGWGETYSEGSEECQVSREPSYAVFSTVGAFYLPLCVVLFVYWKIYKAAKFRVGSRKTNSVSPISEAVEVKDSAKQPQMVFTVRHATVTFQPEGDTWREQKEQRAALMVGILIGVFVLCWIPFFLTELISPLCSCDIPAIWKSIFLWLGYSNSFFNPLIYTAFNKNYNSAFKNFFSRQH
# experimental.conditions: Compound concentration 10 µM
# Description: PDSP Primary Binding target: HTR5A - Compounds are tested at 10 uM concentration, plate are incubated at room temperature in the dark for 90 minutes. Reaction are stopped by vacuum filtration onto 0.3% polyethyleneimine soaked filter mats using Filtermate harvester. Scintilation cocktail is then melted onto microwave-dried filters on a hot plate and the radio activity is counted in Microbia counter.
assay.endpoint: inhibition (%)
Answers are plain numbers, in %.

Example entries begin here.
compound | assay.endpoint | unit.descriptor | experimental.result
O=C(c1cc2c(cc1F)OC(c1ccc(F)cc1)(c1ccc(Cl)cc1Cl)O2)N1CCOCC1 (centres undefined) | inhibition | % | -2.04
CCCCCCCCCCCCCCCCOC[C@H](COP(=O)([O-])OCC[N+](C)(C)C)OC(C)=O | inhibition | % | 17.5

Hey, can you go through the list below and give me inhibition for every item?
1. c1ccc(N2CCN(Cc3nc4ccccc4[nH]3)CC2)nc1
2. CCOC(=O)c1c(C)[nH]c2ccc3c(c12)CN1CCc2cc(OC)ccc2C1O3 (centres undefined)
3. COc1ccc(C2(O)OC(=O)C(c3ccc4c(c3)OCO4)=C2Cc2cc(OC)c(OC)c(OC)c2)cc1 (centres undefined)
4. CCc1nn(CCCN2CCN(c3cccc(Cl)c3)CC2)c(=O)n1CCOc1ccccc1
5. Cc1cc(C(=O)N2Cc3cnn(C)c3Nc3ccccc32)ccc1CNC(=O)N1CCC[C@H]1C(=S)N1CCCN(C)CC1

[11.8, 31, 4.51, 73.3, 35]

* * *

# experimental.system: 5-hydroxytryptamine receptor 2C (Homo sapiens) (UniProt P28335)
# Sequence (P28335 whole entry): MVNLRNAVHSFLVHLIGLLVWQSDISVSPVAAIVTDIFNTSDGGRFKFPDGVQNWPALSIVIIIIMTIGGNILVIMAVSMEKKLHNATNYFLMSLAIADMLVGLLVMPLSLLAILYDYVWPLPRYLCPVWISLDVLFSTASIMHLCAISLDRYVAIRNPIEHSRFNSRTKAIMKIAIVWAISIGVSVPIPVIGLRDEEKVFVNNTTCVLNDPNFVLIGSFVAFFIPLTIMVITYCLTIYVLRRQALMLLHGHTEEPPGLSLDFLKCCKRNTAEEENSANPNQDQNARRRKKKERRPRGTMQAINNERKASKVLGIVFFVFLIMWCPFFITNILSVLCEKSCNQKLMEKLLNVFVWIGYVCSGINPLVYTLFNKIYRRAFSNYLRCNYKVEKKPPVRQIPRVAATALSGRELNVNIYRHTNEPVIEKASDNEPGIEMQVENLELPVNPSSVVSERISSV
# experimental.conditions: Compound concentration 10 µM
# Description: PDSP Primary Binding target: HTR2C - Compounds are tested at 10 uM concentration, plate are incubated at room temperature in the dark for 90 minutes. Reaction are stopped by vacuum filtration onto 0.3% polyethyleneimine soaked filter mats using Filtermate harvester. Scintilation cocktail is then melted onto microwave-dried filters on a hot plate and the radio activity is counted in Microbia counter.
assay.endpoint: inhibition

Record inhibition for all entries; do not skip any.
1. C[C@@H](NCCc1ccc(O)cc1)[C@@H](O)c1ccc(O)cc1 (relative stereo)
2. COc1ccc(Br)cc1S(=O)(=O)NC(=O)/C=C/c1ccccc1Cc1ccc2ccccc2c1
3. O=C(O)C1CN(Cc2ccc(-c3nc4cc(Cc5ccccc5F)ccc4s3)c(F)c2)C1
4. O=C(O)Cn1c(C(=O)Nc2nc(-c3ccccc3Cl)cs2)cc2ccccc21
5. O=c1ccn([C@@H]2O[C@H](COP(=O)(O)OP(=O)(O)OP(=O)(O)O)[C@@H](O)[C@H]2O)c(=O)[nH]1
6. OC1(c2ccc(Cl)cc2)CCN(Cc2c[nH]c3ccccc23)CC1
7. Cc1nn(C)c(C)c1-c1cccc2c1CC[C@H](N(C)C)C2
8. CCCSc1nc(N[C@@H]2C[C@H]2c2ccc(F)c(F)c2)c2nnn([C@@H]3C[C@H](OCCO)[C@@H](O)[C@H]3O)c2n1

["-0.38%", "26.2%", "35.8%", "12.4%", "9.66%", "18.8%", "13.1%", "-3.61%"]

Return reported inhibition values for all items listed beneath this line.
1. CN1CCC(C(=O)c2cccc(NC(=O)c3c(F)cc(F)cc3F)n2)CC1
2. O=c1ccn([C@@H]2O[C@H](COP(=O)(O)OP(=O)(O)O)[C@@H](O)[C@H]2O)c(=O)[nH]1

["6.11%", "3.57%"]

Lab note: each compound below needs its inhibition filled in.
1. N[C@H](C(=O)O)c1ccc(C(=O)O)c(C(=O)O)c1
2. COc1ccc(NC(=O)c2ccc(-c3ccc(-c4noc(C)n4)cc3C)cc2)cc1OCCN(C)C
3. C[C@@H](N)Cc1c[nH]cn1

1. 13.4%
2. 98.3%
3. 5.48%
